B1: EEHEE_rd4_0469 (parent)
chain: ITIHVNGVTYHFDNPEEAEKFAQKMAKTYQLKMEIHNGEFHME

Variants of: B1
Assay: folding stability dG (cDNA display proteolysis); higher = more stable
Conditions: PBS, room temperature
Recorded measurements of folding stability dG, one per entry
Metric name: folding stability dG

> print(dat)
                               sequence.text           metric.name           result
 1  ITIHVNGVTYHFDNPEWAEKFAQKMAKTYQLKMEIHNGEFHME [E17W]  folding stability dG    1.01 kcal/mol
 2  ITIHVNGVTYHFDNPEEAEKFAQKMAKTYQKKMEIHNGEFHME [L31K]  folding stability dG   0.692 kcal/mol
 3  ITIHVNGVTYHFDNPEEAEKFAQKMAKTYQLKMEIHNWEFHME [G38W]  folding stability dG   0.914 kcal/mol
 4  ITIHVNGVTYHFDNPEEAEKFAQAMAKTYQLKMEIHNGEFHME [K24A]  folding stability dG    1.11 kcal/mol
 5  ITIHVNGVTYHFDNPEEAEKFAQKMAKTYQLKHEIHNGEFHME [M33H]  folding stability dG   0.293 kcal/mol
 6  ITIHVNGVTYHFDNPEEAEKFAQKMAKTYQLKMEIHNGEFKME [H41K]  folding stability dG   0.756 kcal/mol
 7  ITIHVNGVTYHFDNPEEAEKFAQKMAKTYQLKMEIHNGEFQME [H41Q]  folding stability dG   0.682 kcal/mol
 8  ITIHVNGVTYHFDNPEEAEKFAQKEAKTYQLKMEIHNGEFHME [M25E]  folding stability dG   0.109 kcal/mol
 9  ITICVNGVTYHFDNPEEAEKFAQKMAKTYQLKMEIHNGEFHME [H4C]  folding stability dG    1.77 kcal/mol
10  ITIHVNGVTYHFDNPEEAEKFAQKMAKQYQLKMEIHNGEFHME [T28Q]  folding stability dG    1.51 kcal/mol
11  ITIHVNGLTYHFDNPEEAEKFAQKMAKTYQLKMEIHNGEFHME [V8L]  folding stability dG    1.19 kcal/mol
12  ITIHMNGVTYHFDNPEEAEKFAQKMAKTYQLKMEIHNGEFHME [V5M]  folding stability dG   0.927 kcal/mol
13  ITIHVNGVTYHFDNPEEAEKFAQKMAKTYMLKMEIHNGEFHME [Q30M]  folding stability dG   0.881 kcal/mol
14  ITIHVNGVTYHVDNPEEAEKFAQKMAKTYQLKMEIHNGEFHME [F12V]  folding stability dG   0.034 kcal/mol
15  ITIHVNGVTYHFDNPEEAEKFAQKMAKTYQLSMEIHNGEFHME [K32S]  folding stability dG    1.39 kcal/mol
16  ITIHVNGVTHHFDNPEEAEKFAQKMAKTYQLKMEIHNGEFHME [Y10H]  folding stability dG   0.792 kcal/mol
17  ITIHVNGNTYHFDNPEEAEKFAQKMAKTYQLKMEIHNGEFHME [V8N]  folding stability dG    1.12 kcal/mol
18  ITIHVNGVTYHFDNPEEAEKKAQKMAKTYQLKMEIHNGEFHME [F21K]  folding stability dG  -0.758 kcal/mol
19  ITIHVNGVTYHFDNPEEAEKFAQKMAKTYQLKMERHNGEFHME [I35R]  folding stability dG   0.522 kcal/mol
20  ITIHVNGVTYHFDFPEEAEKFAQKMAKTYQLKMEIHNGEFHME [N14F]  folding stability dG    1.05 kcal/mol
21  ITIHVNGVTYHFDNPEEYEKFAQKMAKTYQLKMEIHNGEFHME [A18Y]  folding stability dG   0.556 kcal/mol
22  ITIHVNGVSYHFDNPEEAEKFAQKMAKTYQLKMEIHNGEFHME [T9S]  folding stability dG    1.17 kcal/mol
23  ITIHVNGVTYHFDNPEEAEKFAQKMAKTYQLKMEICNGEFHME [H36C]  folding stability dG    1.69 kcal/mol
24  ITIHVNGVTYHFDNPEEAEKFAQKMAKTYQLKMEIHNGEHHME [F40H]  folding stability dG   0.761 kcal/mol
25  ITIHVNGWTYHFDNPEEAEKFAQKMAKTYQLKMEIHNGEFHME [V8W]  folding stability dG    1.47 kcal/mol
26  ITIHVNPVTYHFDNPEEAEKFAQKMAKTYQLKMEIHNGEFHME [G7P]  folding stability dG  -0.022 kcal/mol
27  ITIHVNGVTYHFDNPEEAEKFAQKMAKTYQLKLEIHNGEFHME [M33L]  folding stability dG    1.43 kcal/mol
28  ITIHVNGVTYHFDNPEEAEKFAQKMAKTVQLKMEIHNGEFHME [Y29V]  folding stability dG   0.848 kcal/mol
